Target: FLT3 K663Q (Homo sapiens, UniProt P36888, K663Q)
Sequence (P36888 27-993 K663Q): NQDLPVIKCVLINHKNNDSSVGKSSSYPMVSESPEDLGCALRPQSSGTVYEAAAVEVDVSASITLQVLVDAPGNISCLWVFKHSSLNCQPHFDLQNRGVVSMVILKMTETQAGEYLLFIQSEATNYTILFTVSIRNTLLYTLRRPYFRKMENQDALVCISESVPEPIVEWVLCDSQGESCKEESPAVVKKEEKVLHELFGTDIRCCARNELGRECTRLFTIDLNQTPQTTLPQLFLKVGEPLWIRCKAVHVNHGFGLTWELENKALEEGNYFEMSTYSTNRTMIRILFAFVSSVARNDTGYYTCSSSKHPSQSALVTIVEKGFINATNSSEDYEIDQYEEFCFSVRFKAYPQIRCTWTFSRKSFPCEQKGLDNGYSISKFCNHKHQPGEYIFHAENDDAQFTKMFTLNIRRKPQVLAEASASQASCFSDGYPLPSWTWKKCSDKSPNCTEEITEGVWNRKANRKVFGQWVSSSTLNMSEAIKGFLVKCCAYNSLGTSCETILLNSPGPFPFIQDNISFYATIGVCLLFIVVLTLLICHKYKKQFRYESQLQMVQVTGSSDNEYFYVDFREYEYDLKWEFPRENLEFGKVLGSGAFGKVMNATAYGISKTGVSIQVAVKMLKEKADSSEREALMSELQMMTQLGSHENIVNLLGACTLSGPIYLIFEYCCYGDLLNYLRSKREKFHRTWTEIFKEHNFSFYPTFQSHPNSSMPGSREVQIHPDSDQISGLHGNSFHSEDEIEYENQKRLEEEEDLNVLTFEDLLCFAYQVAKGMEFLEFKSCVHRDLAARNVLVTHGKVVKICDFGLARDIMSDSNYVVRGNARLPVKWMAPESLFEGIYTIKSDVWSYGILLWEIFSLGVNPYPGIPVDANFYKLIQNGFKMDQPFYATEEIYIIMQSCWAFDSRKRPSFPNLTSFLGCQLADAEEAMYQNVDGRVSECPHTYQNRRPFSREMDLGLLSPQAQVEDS
Assay: DiscoverX KINOMEscan competition binding assay, FLT3 K663Q
Settings: 11-point 3-fold dilution
pKd: −log10 of the molar value.
readout: pKd

>>> reported_result("FC(F)COc1cc2ncc(-c3ccnc(N[C@H]4CNCC[C@@H]4F)n3)n2nc1C1CC1")
8.64
>>> reported_result("CC(C)(O)c1cn2c(-c3nc(N[C@H]4CNCC[C@@H]4F)ncc3F)cnc2cn1 [Compound 100a]")
7.52
>>> reported_result("COc1cc2ncc(-c3nc(N[C@H]4CNCC[C@@H]4F)ncc3F)n2nc1C1CC1")
9.57
>>> reported_result("COc1cc2ncc(-c3nc(N[C@H]4CNCC[C@@H]4F)ncc3F)n2nc1N1CCCS1(=O)=O [Compound 112a]")
9.51
>>> reported_result("COc1cc2ncc(-c3nc(N[C@H]4CNCC[C@@H]4F)ncc3F)n2nc1C(C)(C)O [Compound 45a]")
8.46
>>> reported_result("COc1cc2ncc(-c3nc(N[C@H]4CNCC[C@@H]4F)ncc3F)n2nc1C1COC1 [Compound 92a]")
9.31
>>> reported_result("CC(C)(O)c1ccc2ncc(-c3nc(N[C@H]4CNCC[C@@H]4F)ncc3F)n2c1 [Compound 46a]")
8.43
